Data origin, for the record: patent US9296741B2

Attribute: half-life at 0.5 μM
Assay Method Text: Human liver microsome stability assay
Format: in vitro ADME
Particulars: both sexes, human, microsomes, pH 7.4

{"Item Smiles": "Cn1cc(-c2cc(S(C)(=O)=O)ccc2OC2Cc3ccccc3C2)c2cc[nH]c2c1=O", "Relation Qualifier": "=", "half-life at 0.5 μM [min]": 4}
{"Item Smiles": "CCS(=O)(=O)c1cnc(Oc2ccc(F)cc2F)c(-c2cn(C)c(=O)c3[nH]ccc23)c1", "Relation Qualifier": ">", "half-life at 0.5 μM [min]": 120}
{"Item Smiles": "Cn1cc(-c2cc(S(C)(=O)=O)ccc2Oc2ccc(F)cc2F)c2cc[nH]c2c1=O", "Relation Qualifier": "=", "half-life at 0.5 μM [min]": 52}
{"Item Smiles": "Cn1nc(-c2ccccc2Oc2ccccc2)c2cc[nH]c2c1=O", "Relation Qualifier": "=", "half-life at 0.5 μM [min]": 19}

###

Assay Method Text: Mouse liver microsome stability assay
Type: in vitro ADME
Particulars: male, CD1, mouse, microsomes, pH 7.4
Attribute: half-life at 0.5 μM
Parameter Measured: half-life at 0.5 μM (min)

{"Compound": "Cn1cc(-c2cc(C(=O)NCc3ccc(F)c(F)c3)ccc2Oc2ccc(F)cc2F)c2cc[nH]c2c1=O", "Value Measured": 12}
{"Compound": "Cn1cc(-c2cc(S(=O)(=O)C3CC3)ccc2Oc2ccc(F)cc2F)c2cc[nH]c2c1=O", "Value Measured": 52}
{"Compound": "Cn1cc(-c2cc(S(C)(=O)=O)ccc2Oc2cccc(C(F)(F)F)c2)c2cc[nH]c2c1=O", "Value Measured": 12}
{"Compound": "CCS(=O)(=O)c1ccc(OC2CCN(C)CC2)c(-c2cn(C)c(=O)c3[nH]ccc23)c1", "Value Measured": 27}
{"Compound": "CN(C)S(=O)(=O)c1ccc(OCC2CC2)c(-c2cn(C)c(=O)c3[nH]ccc23)c1", "Value Measured": 8}
{"Compound": "CCS(=O)(=O)c1ccc(OCC2CC2)c(-c2cn(C)c(=O)c3[nH]ccc23)c1", "Value Measured": 55}
{"Compound": "Cn1cc(-c2cc(S(C)(=O)=O)ccc2OC2CCCCC2)c2cc[nH]c2c1=O", "Value Measured": 11}
{"Compound": "CCCS(=O)(=O)Nc1ccc(OC2CCOC2)c(-c2cn(C)c(=O)c3[nH]ccc23)c1 (centres unmarked)", "Value Measured": 11}

###

Assay Target: human BRD4 second bromodomain (BDII_E352-M457) (Homo sapiens (Human), UniProt O60885)
Assay Method Text: TR-FRET bromodomain binding assay, BRD4 second bromodomain
Attribute: Ki

{"Compound": "Cn1cc(-c2cc(NS(C)(=O)=O)ccc2OC2CCCC2)c2cc[nH]c2c1=O", "Unit Spec": "nM", "Ki": 8.1}
{"Compound": "CC(COC(C)(C)C)Oc1ccc(S(C)(=O)=O)cc1-c1cn(C)c(=O)c2[nH]ccc12 (centres unmarked)", "Unit Spec": "nM", "Ki": 61.3}
{"Compound": "Cn1cc(-c2cc(NS(C)(=O)=O)ccc2OC2CCCCC2)c2cc[nH]c2c1=O", "Unit Spec": "nM", "Ki": 2}
{"Compound": "CCS(=O)(=O)c1ccc(OC2CCS(=O)(=O)CC2)c(-c2cn(C)c(=O)c3[nH]ccc23)c1", "Unit Spec": "nM", "Ki": 35.6}
{"Compound": "Cn1cc(-c2cc(NS(C)(=O)=O)ccc2Oc2ccc(F)cc2F)c2cc[nH]c2c1=O", "Unit Spec": "nM", "Ki": 2.2}
{"Compound": "CCOc1ccc(S(C)(=O)=O)cc1-c1cn(C)c(=O)c2[nH]ccc12", "Unit Spec": "nM", "Ki": 20.3}
{"Compound": "Cn1cc(-c2cc(S(=O)(=O)N3CC(F)(F)C3)ccc2OCC2CC2)c2cc[nH]c2c1=O", "Unit Spec": "nM", "Ki": 6.5}
{"Compound": "Cn1cc(-c2cc(NS(C)(=O)=O)ccc2Oc2ccc(F)cc2Cl)c2cc[nH]c2c1=O", "Unit Spec": "nM", "Ki": 2.1}

###

Attribute: half-life at 0.5 μM
Assay Method Text: Rat liver microsome stability assay
Assay type: in vitro ADME
Particulars: rat liver microsomes (male Sprague-Dawley), 0.5 μM test compound, 0.25 mg/mL microsomal protein, pH 7.4, 37° C.; read-out: Stability in rat liver microsomes (t1/2 in minutes)

{"Compound": "Cn1cc(-c2cc(S(=O)(=O)N3CCCC3)ccc2OCC2CC2(F)F)c2cc[nH]c2c1=O (stereo not shown)", "Relation Qualifier": "=", "half-life at 0.5 μM / min": 3}
{"Compound": "CCOC(=O)c1cc2c(-c3cc(N)ccc3Oc3ccccc3)nn(C)c(=O)c2[nH]1", "Relation Qualifier": "=", "half-life at 0.5 μM / min": 3}
{"Compound": "Cn1cc(-c2cc(S(C)(=O)=O)ccc2NCC2CCOC2)c2cc[nH]c2c1=O (stereo not shown)", "Relation Qualifier": "=", "half-life at 0.5 μM / min": 117}
{"Compound": "Cn1cc(-c2cc(CS(C)(=O)=O)cnc2Oc2ccc(F)cc2F)c2cc[nH]c2c1=O", "Relation Qualifier": "=", "half-life at 0.5 μM / min": 83}
{"Compound": "Cn1cc(-c2cc(S(C)(=O)=O)ccc2OC2CCCCC2)c2cc[nH]c2c1=O", "Relation Qualifier": "=", "half-life at 0.5 μM / min": 6}
{"Compound": "Cn1cc(-c2cc(CN3CCOCC3)ccc2OCC2CC2)c2cc[nH]c2c1=O", "Relation Qualifier": "=", "half-life at 0.5 μM / min": 3}
{"Compound": "Cn1cc(-c2cc(S(C)(=O)=O)ccc2Oc2ccc3c(c2)CCC3)c2cc[nH]c2c1=O", "Relation Qualifier": "=", "half-life at 0.5 μM / min": 6}
{"Compound": "CN1CCC[C@H]1COc1ccc(S(C)(=O)=O)cc1-c1cn(C)c(=O)c2[nH]ccc12", "Relation Qualifier": "=", "half-life at 0.5 μM / min": 80}
{"Compound": "CCN(C)C(=O)c1cc2c(-c3cc(NS(C)(=O)=O)ccc3Oc3ccccc3)nn(C)c(=O)c2[nH]1", "Relation Qualifier": "=", "half-life at 0.5 μM / min": 3}
{"Compound": "CCS(=O)(=O)N(CCC(F)(F)F)c1ccc(Oc2ccc(F)cc2F)c(-c2cn(C)c(=O)c3[nH]ccc23)c1", "Relation Qualifier": "=", "half-life at 0.5 μM / min": 5}
{"Compound": "CCS(=O)(=O)Nc1ccc(Oc2c(F)cc(F)cc2F)c(-c2cn(C)c(=O)c3[nH]ccc23)c1", "Relation Qualifier": "=", "half-life at 0.5 μM / min": 45}
{"Compound": "C=C(C)c1cc2c(-c3cc(S(C)(=O)=O)ccc3Oc3ccc(F)cc3F)cn(C)c(=O)c2[nH]1", "Relation Qualifier": "=", "half-life at 0.5 μM / min": 8}
{"Compound": "Cn1cc(-c2cc(NS(C)(=O)=O)ccc2Oc2c(F)cc(F)cc2F)c2cc[nH]c2c1=O", "Relation Qualifier": "=", "half-life at 0.5 μM / min": 51}
{"Compound": "CCS(=O)(=O)c1ccc(OC2CCS(=O)(=O)CC2)c(-c2cn(C)c(=O)c3[nH]ccc23)c1", "Relation Qualifier": ">", "half-life at 0.5 μM / min": 120}
{"Compound": "CCS(=O)(=O)c1ccc(Oc2ccc(F)cc2F)c(-c2cn(C)c(=O)c3[nH]ncc23)c1", "Relation Qualifier": "=", "half-life at 0.5 μM / min": 57}
{"Compound": "Cn1cc(-c2cc(C(=O)NCc3ccncc3)ccc2Oc2ccc(F)cc2F)c2cc[nH]c2c1=O", "Relation Qualifier": "=", "half-life at 0.5 μM / min": 25}

###

Assay Method Text: Human liver microsome stability assay
Type: in vitro ADME
Particulars: both sexes, human, microsomes, pH 7.4
Attribute: half-life at 0.5 μM

{"Compound": "CCS(=O)(=O)Nc1ccc(OCC2CC2)c(-c2cn(C)c(=O)c3[nH]ccc23)c1C", "Relation Qualifier": "=", "half-life at 0.5 μM, min": 118}
{"Compound": "CCS(=O)(=O)Nc1ccc(OC2CCOCC2)c(-c2cn(C)c(=O)c3[nH]ccc23)c1", "Relation Qualifier": "=", "half-life at 0.5 μM, min": 71}
{"Compound": "Cn1cc(-c2cc(NS(C)(=O)=O)ccc2OC2CCCC2)c2cc[nH]c2c1=O", "Relation Qualifier": ">", "half-life at 0.5 μM, min": 120}
{"Compound": "CCS(=O)(=O)Nc1ccc(OCC2CC2)c(-c2cn(C)c(=O)c3[nH]ccc23)c1", "Relation Qualifier": ">", "half-life at 0.5 μM, min": 120}
{"Compound": "CC(=O)Nc1ccc(Oc2ccc(F)cc2F)c(-c2cn(C)c(=O)c3[nH]ccc23)c1", "Relation Qualifier": "=", "half-life at 0.5 μM, min": 88.9}
{"Compound": "Cn1cc(-c2cc(S(C)(=O)=O)ccc2Oc2cccc3cnccc23)c2cc[nH]c2c1=O", "Relation Qualifier": "=", "half-life at 0.5 μM, min": 5}
{"Compound": "Cc1ccc(F)c(Oc2ccc(S(C)(=O)=O)cc2-c2cn(C)c(=O)c3[nH]ccc23)c1", "Relation Qualifier": "=", "half-life at 0.5 μM, min": 9}
{"Compound": "CCS(=O)(=O)Nc1ccc(OC2CCOC2)c(-c2cn(C)c(=O)c3[nH]ccc23)c1 (stereo not shown)", "Relation Qualifier": ">", "half-life at 0.5 μM, min": 120}
{"Compound": "Cn1cc(-c2cc(CS(C)(=O)=O)cnc2Oc2ccc(F)cc2F)c2cc[nH]c2c1=O", "Relation Qualifier": ">", "half-life at 0.5 μM, min": 120}
{"Compound": "CCS(=O)(=O)Nc1ccc(Oc2ccc(F)cc2F)c(-c2cn(C)c(=O)c3[nH]c(CN4CCN(C)CC4)cc23)c1", "Relation Qualifier": "=", "half-life at 0.5 μM, min": 100}
{"Compound": "CCS(=O)(=O)c1ccc(NCC2CC2)c(-c2cn(C)c(=O)c3[nH]ccc23)c1", "Relation Qualifier": ">", "half-life at 0.5 μM, min": 120}
{"Compound": "Cn1cc(-c2cc(S(C)(=O)=O)ccc2Oc2cccc(C(F)(F)F)c2)c2cc[nH]c2c1=O", "Relation Qualifier": "=", "half-life at 0.5 μM, min": 27}
{"Compound": "Cn1cc(-c2ccccc2Oc2ccccc2)c2cc(-c3ccccc3)[nH]c2c1=O", "Relation Qualifier": "=", "half-life at 0.5 μM, min": 23}
{"Compound": "CN1CCN(C(=O)c2cc3c(-c4cc(S(C)(=O)=O)ccc4Oc4ccc(F)cc4F)cn(C)c(=O)c3[nH]2)CC1", "Relation Qualifier": "=", "half-life at 0.5 μM, min": 58}
{"Compound": "Cn1cc(-c2cc(C(=O)NCc3cccnc3)ccc2Oc2ccc(F)cc2F)c2cc[nH]c2c1=O", "Relation Qualifier": "=", "half-life at 0.5 μM, min": 11}
{"Compound": "CN(C)C(=O)Cc1ccc(OCc2ccccc2)c(-c2cn(C)c(=O)c3[nH]ccc23)c1", "Relation Qualifier": "=", "half-life at 0.5 μM, min": 8}
